Numbers sourced from ChEMBL document CHEMBL2218924.

Reported residual activity by item:
# system name: Cyclin-dependent kinase 2/cyclin E (Homo sapiens) (UniProt P24864+P24941+O96020)
# settings: at 1 µM
outcome measure: residual activity (%)

molecule=O=C1NC(=O)/C(=C\c2ccc3nccnc3c2)S1 system_name="Cyclin-dependent kinase 2/cyclin E (Homo sapiens) (UniProt P24864+P24941+O96020)" numeric_result=94
molecule=CC(C)n1cnc2/c(=N/c3cccc(Cl)c3)nc(NCCO)[nH]c21 system_name="Cyclin-dependent kinase 2/cyclin E (Homo sapiens) (UniProt P24864+P24941+O96020)" numeric_result=25
molecule="O=C1Nc2ccccc2/C1=C1/Nc2ccccc2/C1=N\\OCCC(O)CO (stereo not drawn)" system_name="Cyclin-dependent kinase 2/cyclin E (Homo sapiens) (UniProt P24864+P24941+O96020)" numeric_result=9
molecule=O=C(O)c1ccc2c3c1cccc3c(=O)n1c3ccccc3nc21 system_name="Cyclin-dependent kinase 2/cyclin E (Homo sapiens) (UniProt P24864+P24941+O96020)" numeric_result=99
molecule=CC(C)n1cnc2c(NCc3ccccc3)nc(NCCCO)nc21 system_name="Cyclin-dependent kinase 2/cyclin E (Homo sapiens) (UniProt P24864+P24941+O96020)" numeric_result=39
molecule=Cc1ccc(NC2=CC(=O)c3sc(C)nc3C2=O)cc1 system_name="Cyclin-dependent kinase 2/cyclin E (Homo sapiens) (UniProt P24864+P24941+O96020)" numeric_result=97
molecule=N#C/C(=C(\N)Sc1ccc(N)cc1)c1ccccc1C(F)(F)F system_name="Cyclin-dependent kinase 2/cyclin E (Homo sapiens) (UniProt P24864+P24941+O96020)" numeric_result=97
molecule=CC[n+]1c(/C=C/N(C)c2ccccc2)n(-c2ccccc2)c2ccc(-c3nc4ccccc4s3)cc21 system_name="Cyclin-dependent kinase 2/cyclin E (Homo sapiens) (UniProt P24864+P24941+O96020)" numeric_result=101

====

Reported residual activity by item:
# system name: Macrophage-stimulating protein receptor (Homo sapiens) (UniProt Q04912)
# Sequence (Q04912 25-304 limits assumed): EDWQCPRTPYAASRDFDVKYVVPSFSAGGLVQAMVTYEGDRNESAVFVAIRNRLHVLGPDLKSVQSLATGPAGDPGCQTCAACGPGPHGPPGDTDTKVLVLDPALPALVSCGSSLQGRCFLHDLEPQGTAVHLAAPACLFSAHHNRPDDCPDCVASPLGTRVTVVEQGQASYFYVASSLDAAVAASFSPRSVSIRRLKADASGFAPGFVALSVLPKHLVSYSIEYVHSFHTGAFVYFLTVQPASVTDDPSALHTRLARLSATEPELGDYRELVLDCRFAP
# Sequence (Q04912 310-1400 limits assumed): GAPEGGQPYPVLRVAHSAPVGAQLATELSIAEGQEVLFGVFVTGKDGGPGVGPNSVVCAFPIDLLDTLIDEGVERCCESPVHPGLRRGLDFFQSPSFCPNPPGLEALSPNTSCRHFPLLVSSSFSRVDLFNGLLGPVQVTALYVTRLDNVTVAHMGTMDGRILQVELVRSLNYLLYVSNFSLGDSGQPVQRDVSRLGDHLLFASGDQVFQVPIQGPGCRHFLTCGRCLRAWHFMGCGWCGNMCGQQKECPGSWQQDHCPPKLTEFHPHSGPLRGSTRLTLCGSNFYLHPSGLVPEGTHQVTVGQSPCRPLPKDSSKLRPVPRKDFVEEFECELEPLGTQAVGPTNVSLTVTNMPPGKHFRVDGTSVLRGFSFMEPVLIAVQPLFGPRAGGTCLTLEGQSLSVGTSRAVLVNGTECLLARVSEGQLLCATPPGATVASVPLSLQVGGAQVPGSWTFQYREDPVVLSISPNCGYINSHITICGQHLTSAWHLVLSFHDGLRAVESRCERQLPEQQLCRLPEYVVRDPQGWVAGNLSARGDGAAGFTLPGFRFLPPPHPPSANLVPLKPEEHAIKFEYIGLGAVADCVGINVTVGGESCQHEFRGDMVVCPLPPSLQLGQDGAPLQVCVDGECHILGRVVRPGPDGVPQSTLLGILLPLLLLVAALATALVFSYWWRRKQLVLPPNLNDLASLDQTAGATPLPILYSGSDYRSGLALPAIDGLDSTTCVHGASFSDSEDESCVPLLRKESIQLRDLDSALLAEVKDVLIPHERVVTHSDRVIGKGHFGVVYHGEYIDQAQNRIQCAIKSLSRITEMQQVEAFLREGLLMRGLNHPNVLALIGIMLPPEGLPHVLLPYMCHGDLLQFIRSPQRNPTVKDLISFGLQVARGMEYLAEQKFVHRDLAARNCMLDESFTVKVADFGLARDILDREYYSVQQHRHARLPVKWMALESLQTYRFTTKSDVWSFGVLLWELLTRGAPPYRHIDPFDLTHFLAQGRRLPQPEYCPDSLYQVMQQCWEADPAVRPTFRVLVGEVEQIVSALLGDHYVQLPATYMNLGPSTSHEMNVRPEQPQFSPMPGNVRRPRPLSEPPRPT
# settings: at 1 µM
outcome measure: residual activity (%)

smiles_input=O=C(O)c1ccc2c3c1cccc3c(=O)n1c3ccccc3nc21 numeric_result=106
smiles_input=CN(C)c1ccc(/C=C2\C(=O)Nc3ccccc32)cc1 numeric_result=91
smiles_input=COc1cc2ncnc(Nc3ccc(O)c(Br)c3)c2cc1OC numeric_result=90
smiles_input=CO[C@@H]1[C@H](N(C)C(=O)c2ccccc2)C[C@H]2O[C@]1(C)n1c3ccccc3c3c4c(c5c6ccccc6n2c5c31)C(=O)NC4 numeric_result=47
smiles_input=O=C1NC(=O)c2cc(Nc3ccc(F)cc3)c(Nc3ccc(F)cc3)cc21 numeric_result=104
smiles_input=Cn1cnc2cc3c(Nc4cccc(Br)c4)ncnc3cc21 numeric_result=88
smiles_input=CCOc1cc2ncnc(Nc3cccc(Br)c3)c2cc1OCC numeric_result=101
smiles_input=Nc1cccc(-c2cc3c(Oc4cccc(O)c4)ncnc3[nH]2)c1 numeric_result=83
smiles_input=COc1cccc(-c2cc(=O)c3ccccc3o2)c1N numeric_result=93
smiles_input=O=C1NC(=O)/C(=C\c2ccc3nccnc3c2)S1 numeric_result=88
smiles_input=O=C1c2ccccc2-[n+]2ccc3c([nH]c4ccccc43)c21 numeric_result=77
smiles_input=CC(=O)O/N=C1\C(=C2\C(=O)Nc3cc(Br)ccc32)Nc2ccccc21 numeric_result=85
smiles_input=O=[N+]([O-])c1ccc(-c2nc(-c3ccc(F)cc3)c(-c3ccncc3)[nH]2)cc1 numeric_result=90
smiles_input=CC#CC(=O)Nc1cc2c(Nc3ccc(F)c(Cl)c3)ncnc2cn1 numeric_result=101
smiles_input=COc1cc2ncc(-c3ccccc3)nc2cc1OC numeric_result=98
smiles_input=O=c1cc(-c2cccc3c2Sc2ccccc2S3)oc(N2CCOCC2)c1 numeric_result=90
smiles_input=O=C(Nc1cccc(Nc2nccc(Nc3cccc(C(F)(F)F)c3)n2)c1)C1CC1 numeric_result=93
smiles_input=O=C1Nc2ccc(Br)cc2/C1=C\c1cc2c([nH]1)CCCC2 numeric_result=116
smiles_input=Cc1ccc(NC2=CC(=O)c3sc(C)nc3C2=O)cc1 numeric_result=79
smiles_input=COc1cc2ncnc(N3CCN(C(=O)Nc4ccc(Oc5ccccc5)cc4)CC3)c2cc1OC numeric_result=74
smiles_input=CO[C@H]1[C@@H](OC)C[C@H](C)[C@@H](OC)C2=CC(=O)C=C(NC(=O)/C(C)=C/C=C/[C@H](OC)[C@@H](OC(N)=O)/C(C)=C/[C@@H]1C)C2=O numeric_result=85
